Test: Selectivity index, ratio of IC50 for PMA-stimulated human U1 cells to EC50 for X4 tropic HIV1 NL4-3 infected in PMA-stimulated human U1 cells
Type: toxicity, cell-based
Details: with X4 tropic HIV1 NL4-3, read-out: Ratio IC50/EC50
measurementName: selectivity ratio

**Q:** Specify measured selectivity ratio for C/C=C(\C)C(=O)c1c(OC)c2c(c3c(CCC)cc(=O)oc13)OC(C)(C)C=C2 .
**A:** 2.43

###

Tested on: MOLT-4
Assay: Cytotoxicity against Homo sapiens (human) MOLT4 cells by MTT assay
Type: cell-based
pIC50: −log10 of the molar value.
measurementName: pIC50

**Q:** Specify measured pIC50 for C/C=C(\C)C(=O)c1c(OC)c2c(c3c(CCC)cc(=O)oc13)OC(C)(C)C=C2 .
**A:** < 5.00

Numbers sourced from ChEMBL document CHEMBL3045162.
